// reported IC50 for each item listed
- measured target: Sphingosine 1-phosphate receptor 4 (Homo sapiens) (UniProt O95977)
- Sequence (O95977 whole entry, looked up): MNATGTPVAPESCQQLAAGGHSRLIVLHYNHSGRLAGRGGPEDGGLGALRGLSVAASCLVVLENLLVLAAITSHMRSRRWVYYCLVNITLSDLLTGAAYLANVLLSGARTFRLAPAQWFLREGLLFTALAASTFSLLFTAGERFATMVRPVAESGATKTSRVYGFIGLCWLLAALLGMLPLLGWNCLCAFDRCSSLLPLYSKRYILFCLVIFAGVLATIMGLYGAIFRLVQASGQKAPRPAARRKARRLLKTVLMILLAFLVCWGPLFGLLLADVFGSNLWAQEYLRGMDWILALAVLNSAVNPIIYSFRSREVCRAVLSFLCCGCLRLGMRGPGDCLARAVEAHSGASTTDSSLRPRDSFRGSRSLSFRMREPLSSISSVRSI
- assay summary: antagonism at human S1PR4 – cell-based, FRET, dose response, selectivity assay for S1PR3 antagonist project, late-stage follow-up (AID 743432)
- settings: S1P4 cell line
Activity calls are given as the source filed them. The rule behind the calls is not given here.

Answered examples (5):
compound | IC50
O=C(NC(c1ccc(Cl)c(Cl)c1)c1nc(-c2ccccc2)no1)c1ccc(Cl)c(Cl)c1 (stereo not given) | > 50 µM (inactive)
O=C(NC(c1ccc(Cl)cc1)c1nc(-c2ccccn2)no1)c1cccc(Cl)c1 (stereo not given) | > 50 µM (inactive)
O=C(NC(c1ccc(Cl)cc1)c1nc(-c2ccccc2)no1)c1ccc(Cl)c(Cl)c1 (stereo not given) | > 50 µM (inactive)
O=C(NC(c1cccc(Cl)c1)c1nc(-c2ccccc2)no1)c1cc(Cl)cc(Cl)c1 (stereo not given) | > 50 µM (inactive)
O=C(NC(c1ccc(Br)cc1)c1nc(-c2ccccc2)no1)c1ccc(Cl)c(Cl)c1 (stereo not given) | > 50 µM (inactive)

Per the records, this compound ( COc1ccc(C(=O)NC(c2ccccc2)c2nc(-c3ccccc3)no2)cc1 (stereo not given) ) has IC50 equal to > 50 µM (inactive)

Briefly, IC50 measured for Cc1ccc(C(=O)NC(c2ccccc2)c2nc(-c3ccccc3)no2)cc1 (stereo not given) : > 50 µM (inactive)

The measured IC50 associated with O=C(NC(c1ccccc1)c1nc(-c2ccccc2)no1)c1cccc(Cl)n1 (stereo not given) reads > 50 µM (inactive)

// sample O=C(NC(c1ccccc1)c1nc(-c2ccccc2)no1)c1cccc(Cl)c1 (stereo not given) , its IC50 was > 50 µM (inactive)

So, O=C(NC(c1ccc(Cl)cc1)c1nc(-c2cccc(Cl)c2)no1)c1cccc(Cl)c1 (stereo not given) ? Its IC50 was > 50 µM (inactive)

###

- measured target: Sphingosine 1-phosphate receptor 4 (Homo sapiens)
- assay summary: antagonism at human S1PR4 – cell-based, FRET, dose response, selectivity assay for S1PR3 antagonist project, late-stage follow-up (AID 743432)
- settings: S1P4 cell line
Calls of active or inactive are those of the source. How the calls were made is not given here.
quantity kind: IC50

Here is how some compounds turned out for IC50.
compound | IC50
O=C(NC(c1cccc(Cl)c1)c1nc(-c2ccccc2)no1)c1cccc(Cl)c1 (stereo not given) | 5.2 µM
CCc1ccc(C(NC(=O)c2cccc(Cl)c2)c2nc(-c3ccccc3)no2)cc1 (stereo not given) | > 50 µM (inactive)
O=C(NC(c1cccc(Cl)c1)c1nc(-c2ccccc2)no1)c1ccc(Cl)c(Cl)c1 (stereo not given) | > 50 µM (inactive)
O=C(NC(c1nc(-c2ccccc2)no1)C1CCCCC1)c1ccc(Cl)c(Cl)c1 (stereo not given) | > 50 µM (inactive)
O=C(NC(c1ccc(Cl)c(Cl)c1)c1nc(-c2ccccc2)no1)c1ccccc1 (stereo not given) | > 50 µM (inactive)

For this compound ( O=C(NC(c1ccccc1)c1nc(-c2ccccc2)no1)c1cccc(Br)c1 (stereo not given) ), measured IC50 is > 50 µM (inactive)

compound O=C(NC(c1ccc(Cl)cc1)c1nc(-c2ccccc2)no1)c1ccc(Cl)c(Br)c1 (stereo not given) , IC50 observed: > 50 µM (inactive)

IC50 measured on Cc1ccc(C(NC(=O)c2cccc(Cl)c2)c2nc(-c3ccccc3)no2)cc1 (stereo not given) = > 50 µM (inactive)

Record N#Cc1ccc(C(=O)NC(c2ccc(Cl)c(Cl)c2)c2nc(-c3ccccc3)no2)cc1 (stereo not given) , field IC50: 3.1 µM

Cited source: PubChem BioAssay AID743432
